Entries annotated with measured protein stability index
B1: SFRS1 (parent)
chain: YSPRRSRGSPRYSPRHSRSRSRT

# Variants of: B1
# TEST_PROTOCOL: protein stability index of a GFP-peptide fusion (GPS, HEK-293T) (PSI 1-6); higher = more stable;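 further: lentivirally expressed fusions sorted by FACS into six bins by GFP to DsRed ratio, PSI derived from sequencing read proportions per bin multiplied by bin number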
# CONDITION_SET: c terminus: native
Please give only the number in your answer, with no unit.

Examples from the recorded data:
YSPRRSVGSPRYSPRHSRSRSRT [R7V] | 2.24
YSPRRIRGSPRYSPRHSRSRSRT [S6I] | 3.22
YSPRRSKGSPRYSPRHSRSRSRT [R7K] | 3.77
YSPRRSRGSRRYSPRHSRSRSRT [P10R] | 4.2
YSPRRSRGSPFYSPRHSRSRSRT [R11F] | 2.8

Name the recorded protein stability index for YSPRRSQGSPRYSPRHSRSRSRT [R7Q] .
3.54

Then YSPRRSRGSPDYSPRHSRSRSRT [R11D] ?
2.31

Then YSPRRSRGSPRYSARHSRSRSRT [P14A] ?
4.03

Then YSPRRSCGSPRYSPRHSRSRSRT [R7C] ?
1.95

Then YSPRRGRGSPRYSPRHSRSRSRT [S6G] ?
3.55

Then YSPRRSRGSPRYSWRHSRSRSRT [P14W] ?
3.22

Then YSPRRSRGQPRYSPRHSRSRSRT [S9Q] ?
4.24

Then YKPRRSRGSPRYSPRHSRSRSRT [S2K] ?
3.9

Then YSPRRSRGSPRYSPRHSRSRYRT [S21Y] ?
4

Then HSPRRSRGSPRYSPRHSRSRSRT [Y1H] ?
4.86

Then YSPRRSRGSPRYSCRHSRSRSRT [P14C] ?
1.97

Then YPPRRSRGSPRYSPRHSRSRSRT [S2P] ?
3.71

Then YSPRRSRGSPRYSPRHSGSRSRT [R18G] ?
3.27

Then YSPRRHRGSPRYSPRHSRSRSRT [S6H] ?
3.66

Then YSPRRSRDSPRYSPRHSRSRSRT [G8D] ?
3.45

Then YSPRRSRGSPRYSPSHSRSRSRT [R15S] ?
3.82

Then YSPRRSRGSPRYSPRHSRSRSFT [R22F] ?
3.58

Then YSPLRSRGSPRYSPRHSRSRSRT [R4L] ?
2.76

Then YSPRRSRGSPRYSPRNSRSRSRT [H16N] ?
4.1

Then YSPRRSWGSPRYSPRHSRSRSRT [R7W] ?
1.95

Then YSPRRSRGSPRYSPRSSRSRSRT [H16S] ?
4.5

Then VSPRRSRGSPRYSPRHSRSRSRT [Y1V] ?
4.65

Then YSPRRSRGSPRYSPRHSRSRART [S21A] ?
3.41

Then YSPRRSRGSPRYSPRHSRSRRRT [S21R] ?
4.2

Then YSPRRSRGSPRYSPRHSRSRSPT [R22P] ?
4.04

Then PSPRRSRGSPRYSPRHSRSRSRT [Y1P] ?
4.55
